All figures here come from a melting point compilation (Tetko et al.; mined from patent text by program, amines drawn as free bases though some values may be those of a salt).

endpoint_name: melting point

The measured melting point associated with `CCOC(=O)C(C#N)=Cc1c(Cl)n(C)c2ccccc12` reads 131 to 132 °C

compound Cc1cccc(Cl)c1C1N=C(N(C)C)Cc2ccccc21 (stereo unspecified) , melting point observed: 153 to 154 °C

The value of melting point measured for the compound `Oc1c(Br)cc(-c2c3ccccc3c(Cl)c3sc4ccccc4c23)cc1Br` turned out to be 222 to 223 °C

Lab note: N=C(N)NCCc1ccc(OCCC2Oc3ccccc3N(Cc3cccc(OCc4ccccc4)c3)C2=O)cc1 (stereo unspecified) gave melting point of 100 to 105 °C

Note to self: melting point recorded for `CON=Cc1[nH]ccc1S(=O)(=O)NC(C)(C)C` was 99 to 101 °C

The compound listed as `CC(C)COc1c(NCCCBr)c(=O)c1=O` shows melting point equal to 70 to 71 °C

Documented melting point of `COc1cc(C(=O)Nc2cc(C(=O)c3ccccc3)ccc2N2CCOCC2)cc(OC)c1OC` : 171 to 172 °C

melting point for `CC[Si](C)(C)CCCCCCCCC1=C(O)C(=O)c2ccccc2C1=O` is 39 to 41 °C

Lab note: measured melting point of `COc1cc(O)c(C(=O)c2ccccc2)cc1S(=O)(=O)Cl` was 165 to 172 °C

Consider `CSc1c2c3c(n1C)C(=O)C(=O)C(Cl)=C3NCC2` . Its measured melting point is 205 °C

* * *

Reported melting point is given for each of the following compounds.

A selection of reference data follows.
compound: COC(=O)C(C)(C)S(=O)(=O)N1CCC(c2ccc(Br)c(C)c2)CC1
melting point: 103 to 106 °C
--
compound: COc1ccc2c(c1)S(=O)(=O)c1nccnc1N2
melting point: 293 to 294 °C

For `CCc1cc(Oc2ncc(C(F)(F)F)cc2Cl)n[nH]1` the compound record lists melting point as 55 to 57 °C

Item: `CCOC(=O)C(=O)CC(=O)c1cn(Cc2ccccc2OC)c2ccccc2c1=O` | melting point: 154 to 156 °C

Entry COC(=O)C(CC(C)C)NCC(=O)n1c(=O)cc(-c2ccccc2)c2cc(C(c3ccc(Cl)cc3)n3ccnc3)ccc21 (stereo not given) ; melting point = 118 °C

Form: compound = `CC(C)[C@@H](NC(=O)OCc1ccccc1)C(=O)C=[N+]=[N-]` ; melting point = 68 to 69 °C

melting point reported for this compound `O=C(Nc1ccc(-n2nc(C(F)(F)F)cc2C(F)(F)F)cc1)C1=CCCCC1` : 146 to 148 °C

Input COC1OCOc2cc3c4c(cccc4c21)C(=O)N(O)C3=O (stereo not given) . Output melting point: 249 to 251 °C

Form: compound = `CCOC(=O)OCCn1nc(-c2cc(C(C)(C)C)c(O)c(C(C)(C)C)c2)c2ccc(C)nc21` ; melting point = 145 to 146 °C

Lab note: `FC(F)(F)c1ccccc1CC[C@H]1CNCCN1` gave melting point of 43 to 47 °C

* * *

Reported melting point values follow for various molecules

molecule: CCCCCc1ccc(-c2ncc(O)cn2)c(F)c1F
obs_value: 104 to 105 °C
//
molecule: O=C(OCCN1CCN(c2ccc(Cl)cc2)CC1)c1sccc1Nc1ccnc2c(C(F)(F)F)cccc12
obs_value: 155 °C
//
molecule: CCCCCS(=O)(=O)NC(=O)CCc1ccc(OCCOC)cc1OC1CCCCC1
obs_value: 64.1 to 65.4 °C

melting point for CCOC(=O)C1=C(C)NC(N=CN(C)C)=C(C(=O)OCC)C1c1cccc(OC)c1 (stereo unspecified) is 136 °C

Form field melting point, entry CC(C)CCNC(=O)CNC(=O)C(Br)Cc1ccccc1 (stereo unspecified) : 110 °C

Record summary for `CCCCCCCCCCCCCCCCCCOCCSCCOC(=O)N(Cc1ccccn1)C(C)=O` : reported melting point = 47 to 49 °C

Entry `CCOC(=O)c1conc1-c1ccc(Cl)cc1` — recorded melting point = 43 to 45 °C

The value of melting point measured for the molecule `Fc1ccc(N2CCC(N3CCc4ccccc43)CC2)cc1` turned out to be 120 to 122 °C

melting point reading for CCOC(=O)C1=C2NCCN2C(C)=C(C(=O)OC(C)C)C1c1cccc([N+](=O)[O-])c1 (stereo unspecified) : 136 °C

Per the record, `CCOC(=O)C(=NNc1ccccc1)C(C)=O` has melting point of 75 to 76 °C

The recorded melting point for `COc1ccc2cc(CN(C)C(=O)c3oc4ccccc4c3C)ccc2c1Br` is 138 to 140 °C

Reported melting point for `CC(C)(C)c1cc(C(=O)C2CC2)cc(C(C)(C)C)c1O` was 140 to 142 °C

Looking up `COCOc1ccc(C=O)c2cccc(C)c12` , I see its melting point listed as 42 to 43 °C

melting point in this record for `Cn1c2cc(Cl)ccc2c2c(Cl)nc(-c3ccncc3)nc21` : 272 to 274 °C

melting point reading for `CCCn1nc2c(N)nc3ccccc3c2c1CC(C)(C)NC(C)=O` : 182 to 183 °C

Record summary for `Cc1c(O)c(=O)ccn1CCCCO` : reported melting point = 126 to 128 °C

The recorded melting point for `CCCCCCCCCCCCCCCCCNC(=O)Oc1cccc(N)c1` is 69 to 75 °C

Value of melting point reported for the molecule `CCN(CC)C(=O)c1cc(C(C)(C)C)c(OC(=O)c2cc(C(C)(C)C)c(O)c(C(C)(C)C)c2)c(C(C)(C)C)c1` is 203 to 205 °C
